- Test system: MOLT-4
- Assay Protocol: NCI tumour cell line growth inhibition, 48 h
Calls of active or inactive are those of the source. No stated cut-off is given here; in the data, active = GI50 up to about 1.1 µM and inactive = higher.
Outcome codes: active, inactive

> print(dat)
                                   compound  assigned.label
1               Oc1ncnc2c1sc(=S)n2-c1ccccc1        inactive
2  O=C(O)c1cccc2cccc(-c3c4ccc(=O)cc-4oc4cc(O)ccc34)c12        inactive
3      CCOC(=O)[C@@H]1C[C@H]1c1ccc(O)c(O)c1        inactive
4  CC(=O)c1ccc(O)c(CN(C2CCCCC2)C2CCCCC2)c1O        inactive
5  N#CCCN(CCC#N)c1ccc(/C=C2\N=C(c3ccccc3)N(c3ccccn3)C2=O)cc1        inactive
6  C=C1CC[C@@H]2C(C)(C)CCC[C@@]2(C)[C@@H]1Cc1cc(O)ccc1O          active
7  NC1C/C(=N\O)c2c(Cl)sc(Cl)c21 (centres undefined)        inactive
8     CN(C)CCCNc1ccc2ncn3c4ccccc4c(=O)c1c23        inactive
9  N#CC1N(C(=O)c2ccc(F)cc2)c2ccccc2N1C(=O)c1ccc(F)cc1        inactive

====

Parameter: GI50. Scope: all listed entries.
- System: ACHN
- Assay Protocol: NCI tumour cell line growth inhibition, 48 h
Calls of active or inactive are those of the source. No stated cut-off is given here; in the data, active = GI50 up to about 1.1 µM and inactive = higher.
Value Type: GI50

Compound	Tested On	Value Type	Result
COc1ccc(N2C(=O)/C(=C/c3ccc(N(CCC#N)CCC#N)cc3)N=C2c2ccccc2)cc1	ACHN	GI50	> 100 µM (inactive)
O=C(OC1OC2COC(=O)c3cc(O)c(O)c(O)c3-c3c(cc(O)c(O)c3O)C(=O)OC3C2OC(=O)[C@@]24CC(=O)[C@@](O)(OC25C(=O)O[C@H]2[C@@H](O)CO[C@@]25O)C2(O)Oc5c(O)c(O)cc(c5C24)C(=O)OC13)c1cc(O)c(O)c(O)c1 (some centres undefined)	ACHN	GI50	32.1 µM (inactive)
C=C1CCC2C(C)(CO)C(O)CCC2(C)C1C/C=C1/CCOC1=O (centres undefined)	ACHN	GI50	> 100 µM (inactive)
COc1cc2c(cc1OCCCCOc1cc3c(cc1OC)C(=O)N1CCC[C@H]1C(=O)N3)N=C[C@@H]1CCCN1C2=O	ACHN	GI50	14.7 µM (inactive)
O=c1[nH]c2ccc(C(F)(F)F)cc2nc1-c1ccccc1	ACHN	GI50	> 100 µM (inactive)
O=[N+]([O-])c1ccccc1S(=O)(=O)c1cc(Cl)cc2c1NCCC2	ACHN	GI50	56.6 µM (inactive)
O=C1C=C[C@@]23CC1C(O)C[C@H]2C=Cc1ccccc13 (some centres undefined)	ACHN	GI50	> 100 µM (inactive)
O=C1/C(=C/c2ccc3c(c2)OCO3)Sc2scc(-c3ccc(O)c(O)c3)[n+]21	ACHN	GI50	1.86 µM (inactive)
NC(=O)Nc1cc(O)ccc1/N=N/c1ccc(S(=O)(=O)Nc2ccccn2)cc1	ACHN	GI50	> 100 µM (inactive)
NS(=O)(=O)c1ccc(NC(=O)Cc2nc3ccccc3s2)cc1	ACHN	GI50	15.5 µM (inactive)
COc1ccccc1/C=C1\NC(=S)N(/C=C2\C(=O)Oc3ccccc3C2=O)C1=O	ACHN	GI50	55.6 µM (inactive)
COc1ccccc1N1C(=O)/C(=C\c2ccccc2)SC1c1cc(OC)c(OC)c(OC)c1 (centres undefined)	ACHN	GI50	74.1 µM (inactive)
O=C(CCN1CCCCC1)N1CCc2c([nH]c3ccccc23)C1c1cccnc1 (centres undefined)	ACHN	GI50	> 85.5 µM (inactive)
CC(=O)OC1CC2C(C)(C)OC(=O)CC(OC(C)=O)[C@]2(C)C2CCC3(C)C(=CCC3[C@H]3COC(=O)C3)[C@]12C (some centres undefined)	ACHN	GI50	> 100 µM (inactive)
